Attribution: patent US20230242675A1

# target desc: human PD-L1/His fusion protein (human, UniProt Q9NZQ7 19-239)
# Sequence (Q9NZQ7 19-239 limits assumed): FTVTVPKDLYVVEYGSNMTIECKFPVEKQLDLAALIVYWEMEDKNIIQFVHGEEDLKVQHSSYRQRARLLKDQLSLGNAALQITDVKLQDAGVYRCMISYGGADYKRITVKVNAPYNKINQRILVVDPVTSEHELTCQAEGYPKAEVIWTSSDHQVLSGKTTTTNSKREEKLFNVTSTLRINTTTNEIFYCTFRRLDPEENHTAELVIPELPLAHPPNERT
# assay method text: BLI off-rate; test group 3
recorded endpoint: Off-Rate Ratio to that of EM0005-87c (%)
One number for each entry, in %.

Examples with their reported Off-Rate Ratio to that of EM0005-87c follow.
HuEM0005-87-16 (antibody, human IgG1, V domains shown) VH: EVQLVQSGAEVKKPGASVKVSCKASGYTFTDYYINWVRQAPGQGLEWMGETIPNTGGTTYNQKFKARVTMTVDTSTSTVYMELSSLRSEDTAVYYCARYQSGSPFAYWGQGTTVTVSS VL: EIVMTQSPATLSVSPGERATLSCKASQNVGTAVAWYQQKPGQAPRLLIYSASNRYTGVPDRFTGSGSGTEFTLTISSLQSEDFAVYYCQQHYSTPYTFGGGTKLEIK : 69
HuEM0005-87-13 (antibody, human IgG1, V domains shown) VH: EVQLVQSGAEVKKPGASVKVSCKASGYTFTDYYINWVRQAPGQGLEWIGETIPNTGGTTYNQKFKARVTLTVDKSTSTVYMELSSLRSEDTAVYYCARYQSGSPFAYWGQGTTVTVSS VL: EIVMTQSPATLSVSPGERATLSCKASQNVGTAVAWYQQKPGQAPRLLIYSASNRYTGVPARFSGSGSGTEFTLTISSLQSEDFAVYYCQQHYSTPYTFGGGTKLEIK : 74

Next:
State, in one line, measured Off-Rate Ratio to that of EM0005-87c of HuEM0005-87-17 (antibody, human IgG1, V domains shown) VH: EVQLVQSGAEVKKPGASVKVSCKASGYTFTDYYINWVRQAPGQGLEWMGETIPNTGGTTYNQKFKARVTLTVDTSTSTVYMELSSLRSEDTAVYYCARYQSGSPFAYWGQGTTVTVSS VL: EIVMTQSPATLSVSPGERATLSCKASQNVGTAVAWYQQKPGQAPRLLIYSASNRYTGVPDRFTGSGSGTEFTLTISSLQSEDFAVYYCQQHYSTPYTFGGGTKLEIK
66
